assayInfo: Solubility of free base and salts in 6 different media (UPLC-UV)
Assay type: physicochemical
conditionInfo: water, thermodynamic from solid, water; target concentration 30 mg/ml; orbital stirring at room temperature for 24 h; read-out: Solubility, Water
measuredProperty: solubility at 24 h (µg/mL)
Lab book: enter the figure in µg/mL, no units written.

*Q* Return the recorded solubility at 24 h value; entry: CC(C)CC(C)n1nc(-c2ccc3oc(N)nc3c2)c2c(N)nc(N)nc21.O=C(O)C[C@H](O)C(=O)O (centres unmarked) [Malate Salt]
*A* 1600

*Q* Return the recorded solubility at 24 h value; entry: CC(C)CC(C)n1nc(-c2ccc3oc(N)nc3c2)c2c(N)nc(N)nc21.O=C(O)CC(=O)O (centres unmarked) [Malonate Salt]
*A* 2200
